Target: T1, SHANK2, Q9UPX8
T1 sequence (Q9UPX8 621-730, limits assumed, looked up): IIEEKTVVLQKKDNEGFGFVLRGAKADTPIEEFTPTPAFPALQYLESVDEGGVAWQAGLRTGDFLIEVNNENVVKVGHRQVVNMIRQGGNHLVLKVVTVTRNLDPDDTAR
Test: holdup assay
Design: key: below the threshold = too weak to quantify, mostly under pKd 3.1 to 4
Conditions: plain residues with an end cap or a label only (N-terminal biotin on a linker: ttds)
readoutType: pKd

Examples with answers:
SHSSKGETAV [FZD7, O75084]	below the threshold
PPRQRSETQV [HPV82-E6, Q9IR59]	below the threshold
PSRDRKETSI [RALBP1, Q15311]	below the threshold
KLVIKTETTV [RASSF6, Q6ZTQ3]	below the threshold
SRSRRRETAL [HPV33-E6, P06427]	below the threshold

Turning now to a further record.
[in] Fill blank: measured pKd of the binder SSIDLWETAL [SLC15A5, A6NIM6] is ____.
[out] 5.87

Data origin: paper PMC9482650
